- target_of_assay: ΔF508-CFTR (Homo sapiens, UniProt P13569, DEL508-508)
- Construct: expressed in transfected cells
- Sequence (P13569 with tags, fused parts or gaps DEL508-508): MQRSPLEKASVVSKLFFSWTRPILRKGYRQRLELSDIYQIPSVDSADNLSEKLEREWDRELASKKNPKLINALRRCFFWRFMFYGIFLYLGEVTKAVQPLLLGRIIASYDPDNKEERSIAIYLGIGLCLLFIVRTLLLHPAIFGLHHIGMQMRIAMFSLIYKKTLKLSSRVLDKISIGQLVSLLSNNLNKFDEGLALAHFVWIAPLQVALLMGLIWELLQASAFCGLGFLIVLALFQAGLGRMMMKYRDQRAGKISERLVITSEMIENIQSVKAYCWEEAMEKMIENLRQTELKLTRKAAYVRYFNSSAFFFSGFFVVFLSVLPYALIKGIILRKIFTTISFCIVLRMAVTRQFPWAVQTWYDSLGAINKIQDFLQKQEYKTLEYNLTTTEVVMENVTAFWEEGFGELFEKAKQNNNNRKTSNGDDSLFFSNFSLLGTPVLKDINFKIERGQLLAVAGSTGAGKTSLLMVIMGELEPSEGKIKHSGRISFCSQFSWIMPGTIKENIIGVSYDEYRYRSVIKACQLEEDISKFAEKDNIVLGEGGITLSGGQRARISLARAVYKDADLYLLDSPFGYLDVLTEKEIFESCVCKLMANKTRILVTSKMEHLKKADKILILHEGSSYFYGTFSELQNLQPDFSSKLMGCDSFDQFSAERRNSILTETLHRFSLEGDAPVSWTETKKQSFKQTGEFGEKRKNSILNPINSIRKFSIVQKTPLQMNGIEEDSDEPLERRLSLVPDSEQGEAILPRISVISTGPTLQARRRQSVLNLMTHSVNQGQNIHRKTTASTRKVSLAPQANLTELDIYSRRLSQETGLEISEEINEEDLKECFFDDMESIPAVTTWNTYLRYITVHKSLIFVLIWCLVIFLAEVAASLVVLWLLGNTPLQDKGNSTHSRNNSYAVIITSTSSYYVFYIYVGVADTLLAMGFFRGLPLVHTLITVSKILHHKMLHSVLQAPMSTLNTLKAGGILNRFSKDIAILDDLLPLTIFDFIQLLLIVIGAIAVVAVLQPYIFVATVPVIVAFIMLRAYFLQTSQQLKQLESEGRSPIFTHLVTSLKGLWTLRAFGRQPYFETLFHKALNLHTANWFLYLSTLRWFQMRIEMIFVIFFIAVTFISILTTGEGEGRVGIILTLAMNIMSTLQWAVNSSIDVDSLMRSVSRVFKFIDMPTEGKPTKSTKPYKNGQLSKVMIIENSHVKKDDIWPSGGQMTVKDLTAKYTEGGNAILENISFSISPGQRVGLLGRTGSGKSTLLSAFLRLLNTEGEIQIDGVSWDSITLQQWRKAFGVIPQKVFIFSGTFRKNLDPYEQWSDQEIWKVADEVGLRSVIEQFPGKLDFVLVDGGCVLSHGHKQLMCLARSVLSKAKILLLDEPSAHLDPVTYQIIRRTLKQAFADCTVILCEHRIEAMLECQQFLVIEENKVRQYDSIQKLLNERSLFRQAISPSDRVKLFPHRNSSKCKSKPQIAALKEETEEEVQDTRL
- experimental_details: Membrane potential optical assay (FLIPR III), identification of potentiator compounds
- Format: cell-based
- test_conditions: 100% efficacy is the maximum response obtained with 4-methyl-2-(5-phenyl-1H-pyrazol-3-yl)phenol
As shown below, each of these molecules has a reported Emax value.

molecule | Emax
O=C(Nc1ccc(N2C3CCC2CC3)cc1C(F)(F)F)c1c[nH]c2cccc(O)c2c1=O [Compound 1-11] | 25 to 100%

Any idea what its Emax is? The molecule is O=C(Nc1ccc(N2C3CCC2CC3)cc1C(F)(F)F)c1c[nH]c2cccc(CO)c2c1=O [Compound 1-4]
25 to 100%

What do you have for Cc1cccc2[nH]cc(C(=O)Nc3ccc(N4C5CCC4CC5)cc3C#N)c(=O)c12 [Compound 1-6] ?
> 100%

What do you have for Cc1ccc2[nH]cc(C(=O)Nc3ccc(N4C5CCC4CC5)cc3C(F)(F)F)c(=O)c2c1 [Compound 1-9] ?
25 to 100%

What do you have for COc1ccc2[nH]cc(C(=O)Nc3ccc(N4C5CCC4CC5)cc3C(F)(F)F)c(=O)c2c1 [Compound 1-2] ?
25 to 100%

###

- target_of_assay: ΔF508-CFTR (Homo sapiens, UniProt P13569, DEL508-508)
- Construct: expressed in transfected cells
- experimental_details: Membrane potential optical assay (FLIPR III), identification of potentiator compounds
- Format: cell-based
- test_conditions: 100% efficacy is the maximum response obtained with 4-methyl-2-(5-phenyl-1H-pyrazol-3-yl)phenol
reported_property: Emax

Past entries and their recorded results:
molecule | Emax
O=C(Nc1ccc(N2C3CCC2[C@H](O)C3)cc1C(F)(F)F)c1c[nH]c2cccc(C(F)(F)F)c2c1=O (stereo partly drawn) [Compound 1-8] | 25 to 100%
CN(C)CC#Cc1cc(N2C3CCC2CC3)ccc1NC(=O)c1c[nH]c2cccc(C(F)(F)F)c2c1=O [Compound 1-13] | 25 to 100%
Cc1cccc2[nH]cc(C(=O)Nc3ccc(N4C5CCC4CC5)cc3C#CCN(C)C)c(=O)c12 [Compound 1-14] | 25 to 100%
O=C(Nc1ccc(N2C3CCC2[C@@H](O)C3)cc1C(F)(F)F)c1c[nH]c2cccc(C(F)(F)F)c2c1=O (stereo partly drawn) [Compound 1-5] | > 100%
Cc1ccc2[nH]cc(C(=O)Nc3ccc(N4C5CCCC4CC5)cc3C(F)(F)F)c(=O)c2c1 [Compound 1-3] | 25 to 100%
O=C(Nc1ccc(N2C3CCCC2CC3)cc1C(F)(F)F)c1c[nH]c2cccc(C(F)(F)F)c2c1=O [Compound 1-12] | 25 to 100%
N#Cc1ccc2[nH]cc(C(=O)Nc3ccc(N4C5CCC4CC5)cc3C(F)(F)F)c(=O)c2c1 [Compound 1-7] | 25 to 100%
Cc1cccc2[nH]cc(C(=O)Nc3ccc(N4C5CCC4CC5)cc3C(F)(F)F)c(=O)c12 [Compound 1-10] | > 100%

Consider now this further molecule.
Any idea what its Emax is? The molecule is O=C(Nc1ccc(N2C3CCC2CC3)cc1C(F)(F)F)c1c[nH]c2cccc(C(F)(F)F)c2c1=O [Compound 1]
25 to 100%
